Would you mind telling me the reported half-life at 5 µM of each entry?
method.notes: Stability in human hepatocytes
Format: in vitro ADME
details: t1/2, Human Hepatocytes, Diastereoisomer A

> print(dat)
                                   compound  measured.quantity  measured.value
1  CCc1cc(C(=O)OCOP2(=O)OCC(C)(C)[C@H](C(=O)NCCC(=O)OC)O2)n(C)n1 (some centres unmarked)  half-life at 5 µM        < 15 min
2  COC(=O)CCNC(=O)[C@@H]1O[P@@](=O)(OCOC(=O)C(C)(C)C)OCC1(C)C (single isomer, unassigned)  half-life at 5 µM        < 15 min

Record half-life at 5 µM per entry; entries follow.
1. COC(=O)CCNC(=O)[C@@H]1OP(=O)(OCOC(=O)c2ccns2)OCC1(C)C (some centres unmarked)
2. COC(=O)CCNC(=O)[C@@H]1O[P@](=O)(OCOC(=O)C(C)(C)C)OCC1(C)C (single isomer, unassigned)
3. COC(=O)CCNC(=O)[C@@H]1OP(=O)(N[C@@H](C)C(=O)OCc2cc(C)cc(C)c2)OCC1(C)C (some centres unmarked)
4. COC(=O)[C@H](C)N[P@@]1(=O)OCC(C)(C)[C@H](C(=O)NCCC(=O)OCc2cn(C)cn2)O1
5. COC(=O)CCNC(=O)[C@@H]1OP(=O)(OCOC(=O)OC(C)C)OCC1(C)C (some centres unmarked)
6. COC(=O)CCNC(=O)[C@@H]1O[P@@](=O)(OCC(F)(F)F)OCC1(C)C

OUTPUT:
1. < 15 min
2. < 15 min
3. < 15 min
4. > 240 min
5. < 15 min
6. > 240 min

###

Would you kindly list half-life at 5 µM for each of these compounds?
method.notes: Stability in human hepatocytes
Format: in vitro ADME
details: t1/2, Human Hepatocytes, Diastereoisomer B

In the examples that follow, each entry is paired with its recorded half-life at 5 µM.
> print(dat)
                                   compound  measured.value
1  COC(=O)CCNC(=O)[C@@H]1OP(=O)(OCOC(=O)c2ccc(CN3CCCC3)cc2)OCC1(C)C (stereo partly drawn)        < 15 min
2  COC(=O)CCNC(=O)[C@@H]1OP(=O)(N[C@@H](C)C(=O)OCCc2ccccc2)OCC1(C)C (stereo partly drawn)        < 15 min

INPUT: Give its half-life at 5 µM value. Item: COC(=O)[C@H](C)NP1(=O)OCC(C)(C)[C@H](C(=O)NCCC(=O)OCc2ccncc2)O1 (stereo partly drawn)
OUTPUT: 65.4 min

###

method.notes: Stability in human plasma
Format: in vitro ADME
details: human, plasma, Diastereoisomer A (upfield shift in 31P NMR), 37° C., read-out: t1/2, Human Plasma, Diastereoisomer A (converted)
Please provide measured half-life at 3 µM for the entries that follow.

> print(dat)
                                   compound  measured.value
1  CC(C)(C)C(=O)OCO[P@@]1(=O)OCC(C)(C)[C@H](C(=O)NCCC(=O)OCc2cncs2)O1 (single isomer, unassigned) [Compound No. 79]        > 60 min
2  CCc1cc(C(=O)OCOP2(=O)OCC(C)(C)[C@H](C(=O)NCCC(=O)OC)O2)n(C)n1 (stereo partly drawn) [Compound No. 84]        > 60 min
3  C[C@H](NP1(=O)OCC(C)(C)[C@H](C(=O)NCCC(=O)O[C@@H]2CCOC2)O1)C(=O)OCCc1ccccc1 (stereo partly drawn) [1-55]        > 60 min
4  COC(=O)CCNC(=O)[C@@H]1OP(=O)(N[C@@H](C)C(=O)OCc2cccnc2)OCC1(C)C (stereo partly drawn) [compound 24]        15.6 min
5  CC(C)(C)C(=O)OCOP1(=O)OCC(C)(C)[C@H](C(=O)NCCC(=O)OC2CCOC2)O1 (stereo partly drawn) [Compound No. 94]        40.8 min

// each compound listed below needs its half-life at 3 µM
1. COC(=O)CCNC(=O)[C@@H]1OP(=O)(N[C@@H](Cc2cccnc2)C(=O)OCc2ccccc2)OCC1(C)C (stereo partly drawn) [compound 30]
2. COC(=O)CCNC(=O)[C@@H]1OP(=O)(OCOC(=O)c2ccccc2)OCC1(C)C (stereo partly drawn) [Compound No. 64]
3. COC(=O)CCNC(=O)[C@@H]1OP(=O)(N[C@H](C)C(=O)OCCc2ccccc2)OCC1(C)C (stereo partly drawn) [compound 26]
4. COC(=O)CCNC(=O)[C@@H]1OP(=O)(OCOC(=O)OCc2cccnc2)OCC1(C)C (stereo partly drawn) [Compound No. 97]
5. COC(=O)CCNC(=O)[C@@H]1OP(=O)(OCOC(=O)C(C)C)OCC1(C)C (stereo partly drawn) [Compound No. 103]
6. C[C@H](NP1(=O)OCC(C)(C)[C@H](C(=O)NCCC(=O)OC(C)(C)C)O1)C(=O)OCCc1ccccc1 (stereo partly drawn) [compound 33]

OUTPUT:
1: 49.8 min; 2: < 9.6 min; 3: > 60 min; 4: < 9.6 min; 5: < 9.6 min; 6: > 60 min

# map each compound to its half-life at 3 µM
1. COC(=O)CCNC(=O)[C@@H]1OP(=O)(N[C@H](C)C(=O)OCCc2scnc2C)OCC1(C)C (stereo partly drawn) [compound 32]
2. COC(=O)CCNC(=O)[C@@H]1O[P@](=O)(N[C@H](C(=O)OCCc2ccccc2)C(C)C)OCC1(C)C [compound 45]
3. COC(=O)CCNC(=O)[C@@H]1OP(=O)(OCOC(=O)C2(C)CN(C(=O)OC(C)(C)C)C2)OCC1(C)C (stereo partly drawn) [Compound No. 85]
4. CC(C)(C)C(=O)OCO[P@@]1(=O)OCC(C)(C)[C@H](C(=O)NCCC(=O)O)O1 [Compound No. 91]

OUTPUT:
1: > 60 min; 2: > 60 min; 3: < 9.6 min; 4: > 60 min

Recorded values, source patent US10364263B2.
